# assay-overview: Pharmacokinetics of compound 6 in mice: plasma, urine, bladder, kidneys by HPLC-MS/MS
# Format: in vivo, female CBA/J mice
# assay-context: female, CBA/J, mouse, plasma, sc; single dose 100 mg/kg s.c.; read-out: time of peak plasma concentration
property-label: Tmax
Respond with a number, then the unit of measure.

stdin: Look up Tmax: NC1CCCc2c1[nH]c1ccc(F)cc21 (stereo not shown)
stdout: 4 h

----------
# assay-overview: Pharmacokinetics of compound 6 in mice: plasma, urine, bladder, kidneys by HPLC-MS/MS
# Type: in vivo, female CBA/J mice
# assay-context: female, CBA/J, mouse, urine, subcutaneous; 100 mg/kg s.c. once a day; sample just prior to the 48-h injection; 2 samples; read-out: mean trough level in urine
property-label: concentration at 48 h
Form field: result (number plus unit)

stdin: Quick one: concentration at 48 h for NC1CCCc2c1[nH]c1ccc(F)cc21 (stereo not shown) ?
stdout: 152 µM

Where do the numbers come from? From paper PMC9045377.
